Outcome measure: logP

[[record]]
molecule = "CC1=CC(O)C2CC1C2(C)C (configuration not stated)"
outcome_measure = "logP"
experimental_value = 3.16

[[record]]
molecule = "CC1=CC=C(C(C)C)CC1"
outcome_measure = "logP"
experimental_value = 4.25

[[record]]
molecule = "C=C(C)[C@@H]1CC=C(C)C(=O)C1"
outcome_measure = "logP"
experimental_value = 2.71

[[record]]
molecule = "CC1=CCC(O)(C(C)C)CC1 (configuration not stated)"
outcome_measure = "logP"
experimental_value = 3.26

[[record]]
molecule = "CC(C)C12CCC(C)(CC1)O2"
outcome_measure = "logP"
experimental_value = 2.97

[[record]]
molecule = "CC(=O)/C=C/C1C(C)=CCCC1(C)C (configuration not stated)"
outcome_measure = "logP"
experimental_value = 3.85

[[record]]
molecule = "CC(C)=CCC[C@@H](C)CC=O"
outcome_measure = "logP"
experimental_value = 3.83


====

Form field: logP (one value per entry).
Outcome measure: logP

[[record]]
compound = "CC1=CCC2C(C1)C2(C)C (configuration not stated)"
experimental_value = 4.38

[[record]]
compound = "CC(=O)OC1CC(C)CCC1C(C)C (racemic)"
experimental_value = 4

[[record]]
compound = "CC(=O)OC(C)(C)C1CC=C(C)CC1 (configuration not stated)"
experimental_value = 3.96

[[record]]
compound = "C=C(C)C1CCC(C)C(=O)C1 (configuration not stated)"
experimental_value = 2.85

[[record]]
compound = "CC1=CC(=O)[C@H]2C[C@@H]1C2(C)C"
experimental_value = 2.23

[[record]]
compound = "CC1(C)C2CC=C(C=O)C1C2 (configuration not stated)"
experimental_value = 2.98

[[record]]
compound = "CC1CCC(C(C)C)C(O)C1 (configuration not stated)"
experimental_value = 3.4

[[record]]
compound = "CC12CCC(C1)C(C)(C)C2=O (configuration not stated)"
experimental_value = 3.52

[[record]]
compound = "CC(C)=CCC/C(C)=C/CO"
experimental_value = 3.56

[[record]]
compound = "CC1(C)C2CC=C(CO)C1C2 (configuration not stated)"
experimental_value = 3.22

[[record]]
compound = "CC12CCC(CC1)C(C)(C)O2"
experimental_value = 2.74

[[record]]
compound = "CC(C)[C@@H]1CC[C@@H](C)CC1=O"
experimental_value = 3.05

[[record]]
compound = "CC1(C)C2CCC(CN)C1C2 (configuration not stated)"
experimental_value = 2.05

[[record]]
compound = "C=CC(C)(CCC=C(C)C)OC(C)=O (configuration not stated)"
experimental_value = 3.93

[[record]]
compound = "CC1=CC(=O)C(C(C)C)CC1 (configuration not stated)"
experimental_value = 2.85

[[record]]
compound = "CC(C)=C1CC[C@@H](C)CC1=O"
experimental_value = 3.08

[[record]]
compound = "CC(=O)OC/C=C(\\C)CCC=C(C)C"
experimental_value = 4.04

[[record]]
compound = "C=C(C)C1CC=C(CO)CC1 (configuration not stated)"
experimental_value = 3.17

[[record]]
compound = "CC1(C)[C@@H]2CC[C@@]1(C)[C@H](O)C2"
experimental_value = 3.24

[[record]]
compound = "C=CC1(C)CCC(C(C)(C)O)O1 (configuration not stated)"
experimental_value = 2.43

[[record]]
compound = "CC1=CC2C(CC1)C2(C)C (configuration not stated)"
experimental_value = 4.44

[[record]]
compound = "C=C(C)C1CCC(C)C(O)C1 (configuration not stated)"
experimental_value = 3.21

[[record]]
compound = "C=C(C)C1CCC2(C)OC2C1 (configuration not stated)"
experimental_value = 3.2

[[record]]
compound = "CC1=CCC(C(C)(C)O)C[C@@H]1O (some centres not stated)"
experimental_value = 1.81

[[record]]
compound = "CC1(C)[C@H]2CC[C@](C)(C2)[C@H]1O"
experimental_value = 3.17

[[record]]
compound = "C=C(C)C1CC=C(C)C(O)C1 (configuration not stated)"
experimental_value = 3.12

[[record]]
compound = "C=C1[C@H]2CC[C@H](C2)C1(C)C"
experimental_value = 4.22

[[record]]
compound = "CC1=CCC2C(C1=O)C2(C)C (configuration not stated)"
experimental_value = 2.42

[[record]]
compound = "CC=Cc1ccc(O)c(OC)c1"
experimental_value = 3.04

[[record]]
compound = "Cc1ccc(C(C)C)cc1O"
experimental_value = 3.49

[[record]]
compound = "C=C1CCC2CC1C2(C)C (configuration not stated)"
experimental_value = 4.16

[[record]]
compound = "C=C(C)[C@@H]1CC=C(C=O)CC1"
experimental_value = 3.13

